Test system: SF-539
Experiment: NCI tumour cell line growth inhibition, 48 h
Calls of active or inactive are those of the source. Rule as the data show it: active = GI50 up to about 1.1 µM and inactive = higher.
MEASURED ATTRIBUTE: GI50

Use the examples below as a reference point.
COMPOUND	GI50
COC(=O)CC1N/C(=N\C#N)N(CCc2c[nH]c3ccccc23)C1=O (stereo unspecified)	> 100 µM (inactive)
COC(=O)[C@@H]1C=CCN1S(=O)(=O)c1ccc(C)cc1	60.1 µM (inactive)
Cc1ccc(/C=N/n2c(-c3ccc(C)cc3)n[nH]c2=O)cc1	50.4 µM (inactive)
CC(C)C(=S)N(C)O	25.6 µM (inactive)
O=[N+]([O-])c1ccc(CSC2=C(c3ccc(Cl)cc3)S/C(=C3\SC(SCc4ccc([N+](=O)[O-])cc4)=C(c4ccc(Cl)cc4)S3)S2)cc1	> 100 µM (inactive)

Shift focus to the following entry.
// recorded GI50 for O=S(=O)(O)C(F)(F)C(F)(F)C(F)(F)C(F)(F)F : > 100 µM (inactive)
